assay: Primary fluorescence-based thiol-reactive (MSTI) qHTS assay for identification of artifact compounds. (AID 1845221); details: MSTI thiol-reactivity probe, 1 h; series mostly up to 53.8 µM; also: nearly all actives have a fitted effect of over 65% in size
Inconclusive results are not listed. Active and inactive are the calls of the source. Calls follow the shape of the dose curve; as a rule, active = well fitted inhibition curve with a large enough effect; inconclusive = small, poorly fitted or top-dose-only effect; inactive = no such curve, though single readings can be large or run the other way.
Respond with a class label; see active, inactive

Worked cases, answers included:
- Compound: "CC1(C)CC[C@]2(C(=O)O[C@@H]3O[C@H](CO)[C@@H](O)[C@H](O)[C@H]3O)CC[C@]3(C)C(=CCC4[C@@]5(C)C[C@@H](O)[C@H](O)[C@](C)(C=O)C5CC[C@]43C)[C@@H]2[C@@H]1O (some centres not stated)"
  Class Label: "active"
- Compound: "COc1ccc(C2(O)CCC(N3CC[C@@H](NC(=O)CNC(=O)c4cccc(C(F)(F)F)c4)C3)CC2)cn1 (some centres not stated)"
  Class Label: "inactive"
- Compound: "CC(C)=CCC[C@](C)(O)[C@H]1CC[C@]2(C)[C@@H]1[C@H](O)CC1[C@@]3(C)CC[C@H](O)C(C)(C)[C@@H]3[C@@H](O[C@@H]3O[C@H](CO)[C@@H](O)[C@H](O)[C@H]3O[C@@H]3O[C@H](CO)[C@@H](O)[C@H](O)[C@H]3O)C[C@]12C (some centres not stated)"
  Class Label: "inactive"
- Compound: "Cc1ccc(C)c(OCCn2cc(C(=O)O)c3ccccc32)c1"
  Class Label: "inactive"

Test call, this compound: COc1ccccc1Oc1ccc(N(Cc2cccnc2)S(=O)(=O)CC(F)(F)F)cc1
inactive

Test call, this compound: CSc1ccc(C(=O)N[C@@H]2CCCC[C@@H]2NC(=O)CNC(=O)c2cc(C(F)(F)F)ccc2NC(=O)NC(C)C)cc1
inactive

Test call, this compound: CC(O)c1cc(C(=O)N[C@@H](C)Cn2ccc(-c3ccc(C#N)c(Cl)c3)n2)n[nH]1 (some centres not stated)
inactive

Test call, this compound: CC1CCC2(CO)C(C(=O)O)=CCCC2C1(C)CCc1ccoc1 (configuration not stated)
inactive

Test call, this compound: CCS(=O)(=O)N1CCN(c2ccc(Nc3ncc(C(N)=O)c(NC4CC4)n3)cc2)CC1
active

Test call, this compound: O=C(O)/C=C/c1ccc(O)c(O[C@@H]2O[C@H](CO)[C@@H](O)[C@H](O)[C@H]2O)c1
active

Test call, this compound: CCC(COC)n1nnc2c(Nc3ccc(OC)cc3C)nc(C)cc21 (configuration not stated)
inactive

Test call, this compound: CC1=C(CCC(C)O[C@@H]2O[C@H](CO)[C@@H](O)[C@H](O)[C@H]2O)C(C)(C)CCC1=O (some centres not stated)
active

Test call, this compound: C[C@@H](Oc1cc(-n2cnc3ccc(OC4CCN(C)CC4)cc32)sc1C(N)=O)c1ccccc1C(F)(F)F
inactive

Test call, this compound: CC1=C(C)C(=O)OC(C(C)C2CCC3C4C5OC5C5(O)CC(OC6OC(CO)C(OC7OC(C)C(O)C(O)C7O)C(O)C6O)CC(O)C5(C)C4CCC23C)C1 (configuration not stated)
inactive

###

system: Tov112D; test: Primary qHTS to identify gynecologic anti-cancer compounds using libraries of approved drugs and bioactive compounds (AID 1345084); conditions: Gynecologic cancer cell panel viability, ATPlite luminescence, 48 h; series mostly up to 57.5 µM; also: nearly all actives have a fitted effect of over 55% in size
Results filed as inconclusive are left out. Active and inactive are the calls of the source. The call rests on the fitted dose curve; in most records, active means well fitted cell-killing curve with a large enough effect; inconclusive means small, poorly fitted or top-dose-only effect, or effect the other way; inactive means flat fitted curve, though single readings scatter.

- Compound: "CC(C)(C)NCCCNC(=O)c1cccc(Br)c1"
  outcome: "inactive"
- Compound: "Cc1cc(N(C)C)ccc1-c1nc2ccc(-c3nc4ccc(N5CCN(C)CC5)cc4[nH]3)cc2[nH]1"
  outcome: "inactive"
- Compound: "CCCN1CCN(c2ccc(C(=O)NC3(C(=O)NCC#N)CCCCC3)cc2)CC1"
  outcome: "inactive"
- Compound: "Cc1cnc(Nc2ccc(F)cc2Cl)nc1-c1c[nH]c(C(=O)NC(CO)c2cccc(Cl)c2)c1 (centres undefined)"
  outcome: "inactive"

###

test system: HEK293; assay: Cytotoxic Profiling of Annotated Libraries Using Quantitative High-Throughput Screening (AID 1296008); settings: Five cell lines viability, CellTiter-Glo ATP luminescence, 48-72 h; hits give low values; also: % is scaled to controls: 0 for no effect and ±100 for the full control effect; nearly all actives have a fitted effect of over 60% in size
Records with an inconclusive call do not appear. Active and inactive are the calls of the source. Calls follow the shape of the dose curve; as a rule, active = well fitted inhibition curve with a large enough effect; inconclusive = small, poorly fitted or top-dose-only effect; inactive = flat fitted curve, though single readings scatter.
Endpoint: max response

- Compound: "CN=C(N)NCCCCC/C=C(/C)CC(C)C1OC(=O)C(C)C(O)/C=C/C(C)C(O)CC(O)C(C)C(O)CCC(C)C(O)CC2(O)OC(CC(OC(=O)CC(=O)O)CC(O)CC(O)C(C)C(O)/C(C)=C/CCC1C)CC(O)C2O (stereo not drawn)"
  max response: "-1.07% (inactive)"
- Compound: "CC(=O)N[C@H]1[C@H](O[C@H]2CC[C@@]3(C)C(CC[C@]4(C)C3CC=C3C5CC(C)(C)CC[C@]5(C(=O)O)[C@H](O)C[C@]34C)C2(C)C)O[C@H](CO[C@@H]2OC[C@H](O)[C@H](O)[C@H]2O[C@@H]2OC[C@@H](O)[C@H](O)[C@H]2O)[C@@H](O)[C@@H]1O (stereo partly drawn)"
  max response: "-1.2% (inactive)"

Switching to the query record.
For record C[C@@H]1CC[C@@]2(OC1)O[C@H]1C[C@H]3[C@@H]4CC=C5C[C@@H](O)CC[C@]5(C)[C@H]4CC[C@]3(C)[C@H]1[C@@H]2C the listed max response is -1.54% (inactive)

###

tested on: Nanoluciferase (engineered Oplophorus gracilirostris luciferase); experiment: Primary Nanoluciferase (NLuc) qHTS assay for identification of artifact compounds. (AID 1845222); details: NLuc-conditioned medium, Nano-Glo luminescence, 5 min; series mostly up to 54.1 µM;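 also: NLuc secreted into diluted conditioned medium of S16 cells; 0% = DMSO and -100% = no enzyme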
The source made the active and inactive calls. Calls follow the shape of the dose curve; as a rule, active = well fitted inhibition curve with a large enough effect; inconclusive = small, poorly fitted or top-dose-only effect; inactive = flat fitted curve, though single readings scatter.
Endpoint: activity, negative = inhibition

Sample answers from the record:
- Compound: "CCOC(=O)C(CCc1ccccc1)NC1CSC(c2cccs2)CN(CC(=O)O)C1=O (stereo not given)"
  activity, negative = inhibition: "inactive"
- Compound: "C/C=C(\\C)C(=O)OCC1OC(OC2OC(COC(=O)/C(C)=C/C)C(OC3OC(CO)C(OC(=O)/C(C)=C/C)C(OC(=O)/C(C)=C/C)C3O)C(O)C2O)C(O)C(O)C1OC1OC(CO)C(OC(=O)/C(C)=C/C)C(OC(=O)/C(C)=C/C)C1O (stereo not given)"
  activity, negative = inhibition: "0% [at 11.6 µM] (inactive)"
- Compound: "COc1cc(/C=C/C(=O)OC[C@H]2O[C@@](CO)(O[C@H]3O[C@H](CO)[C@@H](O)[C@H](O)[C@H]3O)[C@@H](OC(=O)/C=C/c3ccc(O)c(OC)c3)[C@@H]2O)ccc1O"
  activity, negative = inhibition: "inactive"
- Compound: "O=C(CC1C(=O)Nc2ccccc21)OC[C@H]1O[C@@H](OCCc2ccc(O)cc2)[C@H](O)[C@@H](O)[C@@H]1O (stereo not given in full)"
  activity, negative = inhibition: "inactive"

Switching to the query record.
Readout activity, negative = inhibition for COc1c2ccoc2cc2oc(CO[C@@H]3O[C@H](CO)[C@@H](O)[C@H](O)[C@H]3O)cc(=O)c12 , test system Nanoluciferase (engineered Oplophorus gracilirostris luciferase), was inactive

###

test: Primary qHTS for inhibitors of nuclear receptor binding SET domain protein 2 (NSD2) in an isogenic RCH-ACV NSD2 p.E1099K mutant (9B) (AID 1645876); conditions: RCH-ACV (leukaemia line) NSD2 E1099K (9B) viability, CellTiter-Glo, 72 h; series mostly up to 44.9 µM; also: nearly all actives have a fitted effect of over 70% in size; also: potency is read from the fitted curve at half-maximal effect
Records with an inconclusive call do not appear. Calls of active or inactive are those of the source. The call rests on the fitted dose curve; in most records, active means well fitted inhibition curve with a large enough effect; inconclusive means small, poorly fitted or top-dose-only effect; inactive means flat fitted curve, though single readings scatter.
Endpoint: Potency

- Compound: "C=C1CN(Cc2ccc(C(=O)Nc3ccccc3N)cc2)C(=O)c2ccccc21"
  Assay Value: "230 nM (active)"
- Compound: "CC/C=C\\C/C=C\\C/C=C\\CCCCCCCC(=O)OCC(O)COC1OC(CO)C(O)C(O)C1O (stereo not drawn)"
  Assay Value: "inactive"
- Compound: "O=C(NCc1ccccn1)Nc1nnc(-c2ccco2)o1"
  Assay Value: "inactive"

###

tested on: CASKI; assay: Primary qHTS to identify gynecologic anti-cancer compounds using libraries of approved drugs and bioactive compounds (AID 1345084); conditions: Gynecologic cancer cell panel viability, ATPlite luminescence, 48 h; series mostly up to 57.5 µM; also: nearly all actives have a fitted effect of over 55% in size; also: potency is read from the fitted curve at half-maximal effect
Results filed as inconclusive are left out. The source made the active and inactive calls. The call rests on the fitted dose curve; in most records, active means well fitted cell-killing curve with a large enough effect; inconclusive means small, poorly fitted or top-dose-only effect, or effect the other way; inactive means flat fitted curve, though single readings scatter.
Endpoint: Potency

- Molecule: "NC(=O)[C@H](O[C@@H]1O[C@H](CO)[C@@H](O)[C@H](O)[C@H]1O)c1ccccc1"
  Endpoint: "Potency"
  Assay Value: "inactive"
- Molecule: "COc1cc2ncnc(N3CCC(Oc4cnc5ccccc5n4)C3)c2cc1OC (configuration not stated)"
  Endpoint: "Potency"
  Assay Value: "7.08 µM (active)"
- Molecule: "CCCCNc1ncc2c(-c3ccc(F)cc3)nn(CC3CCC(N)CC3)c2n1 (configuration not stated)"
  Endpoint: "Potency"
  Assay Value: "10 µM (active)"
- Molecule: "COc1cc2c3c(cc4ccccc4c3c1O)NC2=O"
  Endpoint: "Potency"
  Assay Value: "inactive"
- Molecule: "Cc1nc2sc(C(=O)NCc3ccncc3)c(N)c2c(C)c1Cl"
  Endpoint: "Potency"
  Assay Value: "inactive"

For record CC1CCC2C(C)(C)[C@@H](O)CC[C@]2(C)C12Cc1c(O)cc3c(c1O2)CN(C(CCC(=O)O)C(=O)O)C3=O (some centres not stated) the listed Potency is inactive

For record C=C(C)[C@@H]1CC[C@]2(C)CC[C@]3(C)[C@H](CC[C@@H]4[C@@]5(C)CC[C@@H](O)C(C)(C)[C@@H]5CC[C@]43C)[C@@H]12 the listed Potency is inactive
